As shown below, each of these compounds has a reported growth inhibition value.
Assay: NCI Yeast Anticancer Drug Screen. Data for the cln2 rad14 strain (AID 165);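 note: 0% = growth equal to vehicle treated cultures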
Details: S. cerevisiae cln2 rad14 strain, at 50.0 µM, active compounds read high
About 79,000 compounds went through this panel and 15% of them were active in at least one assay; those are over-represented in the sample as a whole. Active and inactive are the calls of the source. Cut-off read from the data, not from the text of the source: active = growth inhibition above about 70%; inactive = the rest.

Before answering, review these 4 worked examples.
COc1ccc(N2C(=O)c3c(C)ccc(C)c3C2=O)cc1 | -0.5% (inactive)
C/C=C(/C(=O)NC(N)=O)C(C)C | -48.3% (inactive)
CCCOC(=O)/C=C(\Cl)C(=O)OCCC | -23.2% (inactive)
CC(C)(C)C1=CC(=O)C(C(C)(C)C)=CC1=O | -55% (inactive)

Now look at this entry.
// returns reported growth inhibition for input Brc1cc2c(cc1CC1CCCCO1)OCO2 (stereo not given)
-61.9% (inactive)

All figures here come from PubChem BioAssay (NCI).
